Every entry's value here was drawn from ChEMBL document CHEMBL6182895.

Species on record: Homo sapiens
Assay Protocol: Inhibition of alpha-glucosidase (unknown origin) using p-NPG as substrate preincubated for 5 mins followed by substrate addition and measured after 30 mins relative to control
Design: concentration or dose not given beside the values
Test Parameters: time 35.0 min
Observation Type: inhibition (%)

Answered cases to consult:
- Compound: "Cn1ccnc1/C=C1\\SC(=S)N(CC(=O)Nc2c(F)cc(F)cc2Br)C1=O"
  Unit String: "%"
  inhibition: 6.24
- Compound: "O=C(CN1C(=O)/C(=C/c2nccs2)SC1=S)Nc1ccc(Br)cc1F"
  Unit String: "%"
  inhibition: 9.25
- Compound: "O=C(CN1C(=O)/C(=C/c2nc3ccccc3s2)SC1=S)Nc1c(F)cc(F)cc1Br"
  Unit String: "%"
  inhibition: 6.16
- Compound: "CC(C)CNC(=O)CN1C(=O)/C(=C/c2nc3ccccc3s2)SC1=S"
  Unit String: "%"
  inhibition: 6.23
- Compound: "O=C(CN1C(=O)/C(=C/c2nc3ccccc3s2)SC1=S)Nc1cccnn1"
  Unit String: "%"
  inhibition: 7.42

(1) O=C(CN1C(=O)/C(=C/c2csc3ccccc23)SC1=S)Nc1c(F)cc(Br)cc1Cl
(2) O=C(CN1C(=O)/C(=C/c2nccs2)SC1=S)NC12CC3CC(CC(C3)C1)C2
(3) C[C@H]1O[C@H](O[C@H]2[C@H](O)[C@@H](O)[C@@H](O[C@H]3[C@H](O)[C@@H](O)C(O)O[C@@H]3CO)O[C@@H]2CO)[C@H](O)[C@@H](O)[C@@H]1N[C@H]1C=C(CO)[C@@H](O)[C@H](O)[C@H]1O (stereo partly drawn)
Ask | Task field, ranking: reported inhibition, descending order. Respond with the label ranking, as requested.
Reply | 3, 1, 2

----------
Species on record: Homo sapiens
Assay Protocol: Inhibition of alpha-amylase (unknown origin) using starch as substrate preincubated for 10 mins followed by substrate addition and measured after 10 mins relative to control
Design: concentration or dose not given beside the values
Test Parameters: time 20.0 min
Observation Type: inhibition (%)

- Compound: "O=C(CN1C(=O)/C(=C/c2csc3ccccc23)SC1=S)Nc1ccc(C(F)(F)F)cc1"
  Unit String: "%"
  inhibition: 73.5
- Compound: "O=C(CN1C(=O)/C(=C/c2csc3ccccc23)SC1=S)Nc1c(F)cc(F)cc1Br"
  Unit String: "%"
  inhibition: 60.4

(a) CC(C)CNC(=O)CN1C(=O)/C(=C/c2csc3ccccc23)SC1=S
(b) C[C@H]1O[C@H](O[C@H]2[C@H](O)[C@@H](O)[C@@H](O[C@H]3[C@H](O)[C@@H](O)C(O)O[C@@H]3CO)O[C@@H]2CO)[C@H](O)[C@@H](O)[C@@H]1N[C@H]1C=C(CO)[C@@H](O)[C@H](O)[C@H]1O (some centres not stated)
Ask | Which shows the larger inhibition value: a or b ? The response must carry the label of the picked entry.
Reply | b

(1) Cn1ccnc1/C=C1\SC(=S)N(CC(=O)Nc2cccnn2)C1=O
(2) O=C(CN1C(=O)/C(=C/c2nc3ccccc3s2)SC1=S)Nc1c(F)cc(F)cc1Br
Ask | Which shows the larger inhibition value: 1 or 2 ? The response must carry the label of the picked entry.
Reply | 2
(2: 40.1%, 1: 27.4%)

----------
Organism: Homo sapiens
Assay Protocol: Inhibition of alpha-glucosidase (unknown origin) using p-NPG as substrate preincubated for 5 mins followed by substrate addition and measured after 30 mins relative to control
Set-up: concentration or dose not given beside the values
Test Parameters: time 35.0 min
Observation Type: inhibition (%)

Answered cases to consult:
- Chemical Structure: "Cn1ccnc1/C=C1\\SC(=S)N(CC(=O)Nc2ccc(C(F)(F)F)cc2)C1=O"
  Unit String: "%"
  Result Number: 6.43
- Chemical Structure: "O=C(CN1C(=O)/C(=C/c2csc3ccccc23)SC1=S)Nc1ccc(Br)cc1F"
  Unit String: "%"
  Result Number: 4.31
- Chemical Structure: "O=C(CN1C(=O)/C(=C/c2nc3ccccc3s2)SC1=S)Nc1c(F)cc(Br)cc1Cl"
  Unit String: "%"
  Result Number: 8.37
- Chemical Structure: "O=C(CN1C(=O)/C(=C/c2csc3ccccc23)SC1=S)Nc1cccnn1"
  Unit String: "%"
  Result Number: 7.87
- Chemical Structure: "O=C(CN1C(=O)/C(=C/c2nccs2)SC1=S)Nc1c(F)cc(F)cc1Br"
  Unit String: "%"
  Result Number: 4.85
- Chemical Structure: "O=C(CN1C(=O)/C(=C/c2nc3ccccc3s2)SC1=S)Nc1ccc(C(F)(F)F)cc1"
  Unit String: "%"
  Result Number: 3.78
- Chemical Structure: "CC(C)CNC(=O)CN1C(=O)/C(=C/c2nccn2C)SC1=S"
  Unit String: "%"
  Result Number: 4.88
- Chemical Structure: "O=C(CN1C(=O)/C(=C/c2nc3ccccc3s2)SC1=S)NC12CC3CC(CC(C3)C1)C2"
  Unit String: "%"
  Result Number: 6.63
- Chemical Structure: "O=C(CN1C(=O)/C(=C/c2nc3ccccc3s2)SC1=S)Nc1ccc(Br)cc1F"
  Unit String: "%"
  Result Number: 7.65
- Chemical Structure: "O=C(CN1C(=O)/C(=C/c2csc3ccccc23)SC1=S)Nc1ccc(C(F)(F)F)cc1"
  Unit String: "%"
  Result Number: 4.59

(P) Cn1ccnc1/C=C1\SC(=S)N(CC(=O)NC23CC4CC(CC(C4)C2)C3)C1=O
(Q) O=C(CN1C(=O)/C(=C/c2nccs2)SC1=S)Nc1c(F)cc(Br)cc1Cl
Ask | Which shows the larger inhibition value: P or Q ? The response must carry the label of the picked entry.
Reply | P

(A) O=C(CN1C(=O)/C(=C/c2csc3ccccc23)SC1=S)Nc1c(F)cc(F)cc1Br
(B) O=C(CN1C(=O)/C(=C/c2nccs2)SC1=S)Nc1cccnn1
Ask | Parameter metric = inhibition. Return the lower-valued option from A and B . The response must carry the label of the picked entry.
Reply | A
(A: 6.49%, B: 10.1%)
